# assayed_system: SV2A (Rattus norvegicus (Rat))
# Sequence (Q02563 whole entry): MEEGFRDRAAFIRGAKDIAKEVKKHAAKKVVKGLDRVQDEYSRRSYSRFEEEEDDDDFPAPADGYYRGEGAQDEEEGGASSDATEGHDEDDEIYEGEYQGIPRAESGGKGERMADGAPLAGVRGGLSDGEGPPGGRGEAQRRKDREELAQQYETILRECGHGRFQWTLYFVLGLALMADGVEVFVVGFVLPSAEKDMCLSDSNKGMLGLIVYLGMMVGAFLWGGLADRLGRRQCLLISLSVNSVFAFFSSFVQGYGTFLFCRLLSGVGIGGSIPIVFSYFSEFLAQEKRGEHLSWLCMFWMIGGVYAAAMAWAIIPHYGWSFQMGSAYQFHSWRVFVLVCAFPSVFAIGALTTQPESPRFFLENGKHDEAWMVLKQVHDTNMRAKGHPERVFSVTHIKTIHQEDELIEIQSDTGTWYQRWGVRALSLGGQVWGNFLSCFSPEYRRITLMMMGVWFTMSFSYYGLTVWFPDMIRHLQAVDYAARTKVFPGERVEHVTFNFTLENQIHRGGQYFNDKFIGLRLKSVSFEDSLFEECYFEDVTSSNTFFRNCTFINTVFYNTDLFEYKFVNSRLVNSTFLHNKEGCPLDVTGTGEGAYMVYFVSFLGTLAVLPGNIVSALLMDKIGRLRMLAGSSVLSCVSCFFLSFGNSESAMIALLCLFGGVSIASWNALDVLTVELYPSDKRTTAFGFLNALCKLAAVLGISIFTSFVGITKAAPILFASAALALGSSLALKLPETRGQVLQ
For each entry below, report its pIC50 value.
The meaning of pIC50 here: minus log10 of the concentration in molar units.

Recorded pIC50 of O=C1CC(c2cccc(F)c2)CN1Cc1ccncc1 (single isomer, unassigned) [(S)-12] , please.
7.55

State the recorded pIC50 for this entry: Cc1cnccc1CN1CC(c2ccc(F)c(F)c2)CC1=O (single isomer, unassigned) [(R)-4]
7.90

----------
Please go through the items and note down their Kp.
# test_protocol: PET imaging studies in rhesus monkeys
# conditions_used: rhesus monkey, in vivo, Distribution volume (VT), Hippocampus; 1T model
Please state the value as a number alone, without comment.

Can you share its Kp? I mean this compound: Cc1cnccc1CN1CC(c2cc(F)cc(F)c2)CC1=O (stereo not drawn) [^18F-5]
27.3

# input compound: O=C1CC(c2cc(F)c(F)c(F)c2)CN1Cc1ccncc1F (stereo not drawn) [^18F-10] ; wanted: its Kp
11.3

Sample Cc1cnccc1CN1CC(c2cccc(F)c2)CC1=O (stereo not drawn) [^18F-11] — what was its Kp?
10.7

----------
What Binding potential (BPND) was measured for each of the following?
# assayed_system: SV2A (Macaca mulatta)
# test_protocol: PET imaging studies in rhesus monkeys
# conditions_used: Caudate nucleus; from VT, centrum semiovale as reference region
I'd appreciate a reply containing only the number, no unit.

Which Binding potential (BPND) is reported for this compound? Cc1cnccc1CN1CC(c2cc(F)c(F)c(F)c2)CC1=O (stereo not shown) [^18F-3]
2.54

Recorded Binding potential (BPND) of Cc1cnccc1CN1CC(c2cc(F)cc(F)c2)CC1=O (stereo not shown) [^18F-5] , please.
2.09

Which Binding potential (BPND) value belongs to Cc1cnccc1CN1CC(c2cccc(F)c2)CC1=O (stereo not shown) [^18F-11] ?
2.29

Given Cc1cnccc1CN1CC(c2ccc(F)c(F)c2)CC1=O (stereo not shown) [^18F-4] , state its recorded Binding potential (BPND).
1.72

Fill in the blank: the reported Binding potential (BPND) of Cc1cnccc1CN1CC(c2cc(F)c(F)c(F)c2)CC1=O (single isomer, unassigned) [^11C-3] is ____.
2.40

Which measured Binding potential (BPND) value corresponds to O=C1CC(c2cc(F)c(F)c(F)c2)CN1Cc1ccncc1F (stereo not shown) [^18F-10] ?
0.37

I have this compound here, O=C1CC(c2cccc(F)c2)CN1Cc1ccncc1 (stereo not shown) [^18F-12] , and I need its recorded Binding potential (BPND).
0.75

----------
# assayed_system: SV2A (Macaca mulatta, UniProt H9EQH8)
# Sequence (H9EQH8 1-742): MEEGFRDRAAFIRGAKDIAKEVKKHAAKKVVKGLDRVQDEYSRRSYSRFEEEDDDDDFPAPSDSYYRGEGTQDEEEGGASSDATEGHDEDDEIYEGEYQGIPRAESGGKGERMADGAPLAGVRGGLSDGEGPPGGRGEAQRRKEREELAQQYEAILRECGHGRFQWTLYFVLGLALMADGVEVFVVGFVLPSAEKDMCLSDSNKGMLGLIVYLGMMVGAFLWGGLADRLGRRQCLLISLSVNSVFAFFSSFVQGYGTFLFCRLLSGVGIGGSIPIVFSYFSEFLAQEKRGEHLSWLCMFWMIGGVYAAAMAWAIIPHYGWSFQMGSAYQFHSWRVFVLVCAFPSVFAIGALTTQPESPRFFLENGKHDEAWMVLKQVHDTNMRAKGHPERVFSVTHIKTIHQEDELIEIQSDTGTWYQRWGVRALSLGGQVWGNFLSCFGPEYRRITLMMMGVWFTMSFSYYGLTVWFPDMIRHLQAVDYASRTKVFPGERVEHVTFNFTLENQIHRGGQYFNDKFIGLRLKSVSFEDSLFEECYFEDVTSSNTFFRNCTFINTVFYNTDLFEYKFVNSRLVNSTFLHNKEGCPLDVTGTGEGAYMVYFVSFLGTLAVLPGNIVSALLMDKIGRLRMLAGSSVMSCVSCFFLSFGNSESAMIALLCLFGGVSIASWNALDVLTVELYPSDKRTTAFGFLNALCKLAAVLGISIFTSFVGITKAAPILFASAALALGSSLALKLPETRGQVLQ
# test_protocol: PET imaging studies in rhesus monkeys
# conditions_used: Temporal cortex; from VT, centrum semiovale as reference region
Exercise: state measured Binding potential (BPND) for each of the molecules provided.
Reply: number alone, nothing else.

Write down the reported Binding potential (BPND) of Cc1cnccc1CN1CC(c2cc(F)cc(F)c2)CC1=O (stereo not shown) [^18F-5] , test system: SV2A (Macaca mulatta, UniProt H9EQH8).
3.60

Give the reported Binding potential (BPND) for Cc1cnccc1CN1CC(c2cccc(F)c2)CC1=O (stereo not shown) [^18F-11] (system: SV2A (Macaca mulatta, UniProt H9EQH8)).
2.63

Provide value of Binding potential (BPND) for this record tested with SV2A (Macaca mulatta, UniProt H9EQH8): Cc1cnccc1CN1CC(c2cc(F)c(F)c(F)c2)CC1=O (stereo not shown) [^18F-3]
3.14

What Binding potential (BPND) appears in the records for this molecule with SV2A (Macaca mulatta, UniProt H9EQH8)? Cc1cnccc1CN1CC(c2ccc(F)c(F)c2)CC1=O (stereo not shown) [^18F-4]
2.21

Please provide the recorded Binding potential (BPND) for O=C1CC(c2cc(F)c(F)c(F)c2)CN1Cc1ccncc1F (stereo not shown) [^18F-10] , tested on SV2A (Macaca mulatta, UniProt H9EQH8).
0.39

Binding potential (BPND) of Cc1cnccc1CN1CC(c2cc(F)c(F)c(F)c2)CC1=O (single isomer, unassigned) [^11C-3] on SV2A (Macaca mulatta, UniProt H9EQH8)?
2.79

Reported Binding potential (BPND) for SV2A (Macaca mulatta, UniProt H9EQH8), given O=C1CC(c2cccc(F)c2)CN1Cc1ccncc1 (stereo not shown) [^18F-12] ?
0.95
